# Tested on: Staphylococcus epidermidis
# Experimental Protocol: Antibacterial activity against Staphylococcus epidermidis ATCC 49134 after 18 hrs by serial microdilution method
# Format: functional
# Conditions: ATCC 49134, 18 h
Assay Readout: MIC

# Structure, Target Or Test System, MIC
records = [
    ("CO[C@H]1/C=C/O[C@@]2(C)Oc3c(C)c(O)c4c(O)c(c(CNCCCn5ccnc5)c(O)c4c3C2=O)NC(=O)/C(C)=C\\C=C\\[C@H](C)[C@H](O)[C@@H](C)[C@@H](O)[C@@H](C)[C@H](OC(C)=O)[C@@H]1C", "Staphylococcus epidermidis", "0.25 µg/mL"),
]

Exam item: What value of MIC has been recorded for this entry: CO[C@H]1/C=C/O[C@@]2(C)Oc3c(C)c(O)c4c(O)c5c(c(O)c4c3C2=O)CN(Cc2cn(CN3C(=O)c4ccccc4C3=O)nn2)C(=N5)/C(C)=C\C=C\[C@H](C)[C@H](O)[C@@H](C)[C@@H](O)[C@@H](C)[C@H](OC(C)=O)[C@@H]1C
Marked response: > 1 µg/mL

Exam item: What value of measured MIC is listed for CO[C@H]1/C=C/O[C@@]2(C)Oc3c(C)c(O)c4c(O)c(c(/C=N/N5CCN(C)CC5)c(O)c4c3C2=O)NC(=O)/C(C)=C\C=C\[C@H](C)[C@H](O)[C@@H](C)[C@@H](O)[C@@H](C)[C@H](OC(C)=O)[C@@H]1C ?
Marked response: 0.004 µg/mL

Exam item: Requested read-out: MIC. Entry: CO[C@H]1/C=C/O[C@@]2(C)Oc3c(C)c(O)c4c(O)c(c(CNCCN(C)C)c(O)c4c3C2=O)NC(=O)/C(C)=C\C=C\[C@H](C)[C@H](O)[C@@H](C)[C@@H](O)[C@@H](C)[C@H](OC(C)=O)[C@@H]1C
Marked response: 0.5 µg/mL

Exam item: # input compound: CCCc1cn(CCNCc2c3c(O)c4c(O)c(C)c5c(c4c2O)C(=O)[C@@](C)(O/C=C/[C@H](OC)[C@@H](C)[C@@H](OC(C)=O)[C@H](C)[C@H](O)[C@H](C)[C@@H](O)[C@@H](C)/C=C/C=C(/C)C(=O)N3)O5)nn1 ; wanted: its MIC
Marked response: 0.5 µg/mL

Exam item: Requested read-out: MIC. Entry: CO[C@H]1/C=C/O[C@@]2(C)Oc3c(C)c(O)c4c(O)c(c(CNCc5cn(CN6C(=O)c7ccccc7C6=O)nn5)c(O)c4c3C2=O)NC(=O)/C(C)=C\C=C\[C@H](C)[C@H](O)[C@@H](C)[C@@H](O)[C@@H](C)[C@H](OC(C)=O)[C@@H]1C
Marked response: 0.5 µg/mL

Exam item: // MIC lookup, key: CCCCCc1cn(CCCN2Cc3c4c(O)c5c(O)c(C)c6c(c5c3O)C(=O)[C@@](C)(O/C=C/[C@H](OC)[C@@H](C)[C@@H](OC(C)=O)[C@H](C)[C@H](O)[C@H](C)[C@@H](O)[C@@H](C)/C=C/C=C(/C)C2=N4)O6)nn1
Marked response: > 1 µg/mL

Exam item: # MIC lookup, item CO[C@H]1/C=C/O[C@@]2(C)Oc3c(C)c(O)c4c(O)c(c(CNC5CCN(Cc6ccccc6)CC5)c(O)c4c3C2=O)NC(=O)/C(C)=C\C=C\[C@H](C)[C@H](O)[C@@H](C)[C@@H](O)[C@@H](C)[C@H](OC(C)=O)[C@@H]1C
Marked response: 0.25 µg/mL

Exam item: Given the compound CO[C@H]1/C=C/O[C@@]2(C)Oc3c(C)c(O)c4c(O)c(c(CNCCCN5CCN(CCCNCc6c7c(O)c8c(O)c(C)c9c(c8c6O)C(=O)[C@@](C)(O/C=C/[C@H](OC)[C@@H](C)[C@@H](OC(C)=O)[C@H](C)[C@H](O)[C@H](C)[C@@H](O)[C@@H](C)/C=C/C=C(/C)C(=O)N7)O9)CC5)c(O)c4c3C2=O)NC(=O)/C(C)=C\C=C\[C@H](C)[C@H](O)[C@@H](C)[C@@H](O)[C@@H](C)[C@H](OC(C)=O)[C@@H]1C , what is its reported MIC?
Marked response: > 1 µg/mL

Exam item: What value of MIC has been recorded for this entry: CO[C@H]1/C=C/O[C@@]2(C)Oc3c(C)c(O)c4c(O)c(c(CNCCCN5CCCC5)c(O)c4c3C2=O)NC(=O)/C(C)=C\C=C\[C@H](C)[C@H](O)[C@@H](C)[C@@H](O)[C@@H](C)[C@H](OC(C)=O)[C@@H]1C
Marked response: 0.25 µg/mL

Exam item: Endpoint output: MIC of CO[C@H]1/C=C/O[C@@]2(C)Oc3c(C)c(O)c4c(O)c(c(C=O)c(O)c4c3C2=O)NC(=O)/C(C)=C\C=C\[C@H](C)[C@H](O)[C@@H](C)[C@@H](O)[C@@H](C)[C@H](OC(C)=O)[C@@H]1C . Value?
Marked response: > 1 µg/mL

Exam item: Need MIC of CO[C@H]1/C=C/O[C@@]2(C)Oc3c(C)c(O)c4c(O)c(c(CNCCN5CCCC5)c(O)c4c3C2=O)NC(=O)/C(C)=C\C=C\[C@H](C)[C@H](O)[C@@H](C)[C@@H](O)[C@@H](C)[C@H](OC(C)=O)[C@@H]1C , thanks.
Marked response: 0.5 µg/mL

Exam item: Value lookup for MIC; key = CO[C@H]1/C=C\O[C@@]2(C)Oc3c(C)c(O)c4c(O)c(c(CNC5CCN(Cc6ccccc6)CC5)c(O)c4c3C2=O)NC(=O)/C(C)=C\C=C/[C@H](C)[C@H](O)[C@@H](C)[C@@H](O)[C@@H](C)[C@H](OC(C)=O)[C@@H]1C
Marked response: 0.03 µg/mL

Exam item: MIC lookup needed for CCCc1cn(CCN2Cc3c4c(O)c5c(O)c(C)c6c(c5c3O)C(=O)[C@@](C)(O/C=C/[C@H](OC)[C@@H](C)[C@@H](OC(C)=O)[C@H](C)[C@H](O)[C@H](C)[C@@H](O)[C@@H](C)/C=C/C=C(/C)C2=N4)O6)nn1 , thanks.
Marked response: > 1 µg/mL

Exam item: Item CCCCCc1cn(CCCNCc2c3c(O)c4c(O)c(C)c5c(c4c2O)C(=O)[C@@](C)(O/C=C/[C@H](OC)[C@@H](C)[C@@H](OC(C)=O)[C@H](C)[C@H](O)[C@H](C)[C@@H](O)[C@@H](C)/C=C/C=C(/C)C(=O)N3)O5)nn1 has what recorded MIC?
Marked response: 0.5 µg/mL
